Values from the nanobody polyreactivity screen of Harvey et al. (2022)

Experiment: yeast display, Sf9 membrane polyspecificity reagent, FACS + sequencing; frameworks hold sequencing errors
TEST_READOUT: polyreactivity (PSR sort gate)

Worked examples follow.
Q: Bench note: what polyreactivity (PSR sort gate) did QVQLVESGGGLVQAGGSLRLSCDASGNILPSNAMGWYRQAPGKERELVAAITWSVGRTYYADSVKGRFTISRDNAKNTVYLQMNSLKPEDTAVYYCNAQDTPYEGRYDESEYDYWGQGTQVTVSS show?
Ans: low polyreactivity

Q: Proceed to QVQLVESGGGLVQAGGSLRLSCAASGSIFSRNAMGWYRQAPGKEREFVARISWSSTSTNYADSVKGRFTISRDNSKNTVFLLINSLKPEDTAVYYCAADFRGDRRFDYWGQGTQVTVSS
Ans: low polyreactivity

Q: Proceed to QVQLVESGGGLVQAGGSLRLSSAASGRIFKKNSMGWYRQAPGKERELVAAINWTGGSTYYADSVKGRFTISRDNAMNTVYLQLNSLKPEDTAFYYCAVGVYPSYRGPTFSTRRDYWGQGTQVTVSS
Ans: low polyreactivity

Q: Proceed to QVQLVESGGGLVQAGGSLRLSCAASGRTFKKYAMGWYRQAPGKERELVAAITSRGGSTYYADSVKGRFTISRDNAKNTVYLQMNSLKPEDTAVYYCNAVRGWLYVFSYPYWDDEYWGQGTQVTVSS
Ans: high polyreactivity

Q: Proceed to QVQLVESGGGLVQAGGSLRLSCAASGIIFSSNAMGWYTQAPGKERELVAAISRRGGSTYYADSVKGRFTISRDNAKNSVYLQMNSLKPEDTAVYYCNALLYNGAGYDYWGQGTQVTVSS
Ans: high polyreactivity

New cases:
Q: Bench note: what polyreactivity (PSR sort gate) did QVQLVESGGGLVQAGGSLRLSCAASGRIFDRNAMGWYRQAPGKERELVAAISWSGGRTYYADSVKGRFTISRDNAKNTVYLQMNSLKPEDTAVYYCAADHYPWWAWEFDYWGQGTQVTVSS show?
Ans: low polyreactivity

Q: Proceed to QVQLVESGGGLVQAGGSLRLSCAASGSTFGHYAMRSYRQAPGKERQLVAGITDTDNHELRRLCEGRFTISRDNAKNTVYLQMNSLKPEDTAVYDCDAGSNAVFYDYGYWGQGTQVTVSS
Ans: low polyreactivity

Q: Proceed to QVQLVESGGGLVQAGRSLRLTCAASGIIFIGNAMGWYRQATGKERELVAAISRRGGRTYYADSVKGRFTISRDNAKNTVYLQMFSLKPEDTAVYSCNAEITVNDDDYWGQGTQVTVSS
Ans: high polyreactivity

Q: Proceed to QVQLVESGGGLDQAGGSLRLSCAASGITFPGYAMGWYRQAPGKERELVAAIDWSGDGTYYADSVKGRFTISRDNAKNTVYLQMNSLKPEDTAVYYCAKDNYPNHSTVLAVIYDYWGQGTQVTVSS
Ans: low polyreactivity

Q: Proceed to QVQLVESGGGLVQAGGSLRLICAASGYTFTGYAMGWYRQAPGKEREFVAGITWRTGRTYYADSVNGRFTISRDNAKNTVYLQMNSLKPEDTAVYYCAAVPWKRYDYYTPFARGYWGQGTQVTVSS
Ans: low polyreactivity

Q: Proceed to QVQLVESGGALVQEGGSHRLSCAASRRIFVVYAMGWYRQAPGKERELVAAISKRRGSTYYADSVKGRFTISRYNAKNTVYLQMKSQKPEDTAVYYCAVEGVIWSFWPYEYWGQGTQVTVSS
Ans: high polyreactivity

---

Assay: yeast display, Sf9 membrane polyspecificity reagent, FACS + sequencing; frameworks hold sequencing errors
TEST_READOUT: polyreactivity (PSR sort gate)

Worked examples follow.
Q: Bench note: what polyreactivity (PSR sort gate) did QVQLVESGGGLVQAGGSLRLSCAASGSIFHFNAMGWYRQAPGKERELVATITSSGSSTYYADSVKGRFTISRDNAKNTVYLQMNSLKPEDTAVYYCAAGWFWQMDYWGQGTQVTVSS show?
Ans: low polyreactivity

Q: Proceed to QVQLVESGGGLVQAGASLRLSCAASGSIFGGYAMGWYRQAPGKERELVAAISRSGRTNYADSVKGRFTISRDNAKNTVYLQMNSLKPEDTAVYYCAVDKRYGRVVGRDYDYWGQGTQVTVSS
Ans: high polyreactivity

Q: Proceed to QVHLVESGGGLVQAGGSLRLICAASGSIFSAYALGWYRQAPGKERELVAAITWRGGSTYYADSVKGRFTISRDNAKNTVYLQMNSLKPEDTAVYYCAKYYYYLRSARKYDYWGQGTQVTVSS
Ans: high polyreactivity

Q: Proceed to QVQLVESGGGLVQAGGSLRLSCAASGSIFPRNAMGWYRQAPGKERELVAAITVSDGRTYYADSVKGRFTISRDNAKNTVYLQMNSLKPEDTAVYYCAAGYTYYSLYGYWGQGTQVTVSS
Ans: low polyreactivity

Q: Proceed to QDQLVESVVGLVQAGGSLSLSCDSSARTFWYNAMGCYRQAPGKEREFVAAISSSGGTTYYADSVKGRFTISRDNAKNTVYLQMNSLKPEDTAVYYCAKRFSLLSTVRWGRYNYWGQGTQVTVSS
Ans: high polyreactivity

Q: Proceed to QVQLVESGGGLVQAGGSLRLSCAASGSTYRGYAMGWYRQAPGKERELVAAISWTGGSTYNADSVKGRYTISRDNAKNTVYLQMNSLKPEDTAVYYCNTYVKDWGGYSYRYRYYYWGQGTQVTVSS
Ans: high polyreactivity

New cases:
Q: Bench note: what polyreactivity (PSR sort gate) did QVQLRESGCGLVQAGGNLRLSCAARGNIFDADIMGWYRQAPGKERELVASITDGGSTNYADSVRCRFTISRDNAKNTVYLQMNSLKPEDTAVYYCTAIAYPDIPTYFDHDSDYFYWGQGTQVTVSS show?
Ans: high polyreactivity

Q: Proceed to QVQLVESGGGLVQAGGSLRLSCAASGRNFEIYAMGWYRQAPGKERELVAAISWRGVSTYYADSVKGRFTISRDNAKNTVYLQMNSLKPEDTAVYYCNKDVDYFWYVEYDYWGQGTQVTVSS
Ans: low polyreactivity

Q: Proceed to QVQLVESGGGLVQAGGSLRLSCAASGSTFVSYAMGWYRQAPGKERELVAASSRSGGSTYYADSVKGRFTISRDNAKNTVYLQMNILIPEDTAVYYCAADGRGPSKRNRDYWGQGTQVTVSS
Ans: high polyreactivity

Q: Proceed to QDQLVESGGGLVQAGGSLRLSCAASGTTFYRYAMGWYRQAPGKERELVAAISSSGGYTYYADSVKGRFTISRDIAKNTVYLQMNSLKPEDTAVYYCNAAYRVRRFDYWGQGTQVTVSS
Ans: low polyreactivity

Q: Proceed to QVQLVESGGGLVQAGGSLRLTFAASGSTFDYYAMGWYRQAPGKERELVAGITSDGSTYYADSVKGRFTISRDNAKNTVYLQMNSLKPEDTAVYYCDVDVDPVFYTTYYYSYYYWGQGTQVTVSS
Ans: low polyreactivity

---

Assay: yeast display, Sf9 membrane polyspecificity reagent, FACS + sequencing; frameworks hold sequencing errors
TEST_READOUT: polyreactivity (PSR sort gate)

Q: Bench note: what polyreactivity (PSR sort gate) did QVQLVESGGGLVQAGGSLRLSCAASGIIFRVYAMGWYRQAPGKERELVAAITKGGGRTYYADSVKGRFTISRDIAKNTVYLQMNCLIPEDTAVYYCAARSSSRFEYWGQGTEVTVSS show?
Ans: high polyreactivity

Q: Proceed to QVQLVESGGGLVQAGGSLRLSCAASGRTFYRYAMGWYRQAPGKEREFVAAISNGGSNTRYADSVKGRFTISRDNAKNTVYLQMNSLKPEDTAVYYCAARAYQHYNWGQGTQVTVSS
Ans: high polyreactivity

Q: Proceed to QVQLVESGGGLVQAGGSLRLSCAASGSTFEFYAMGWYRQAPGKERELVASITSSSGPTYYADSVKGRFTISRDNAKNTVYLQMNSLKPEDTAVYYCAKRPIRYYHLLRGNYWGQGTQVTVSS
Ans: low polyreactivity

Q: Proceed to QVQLVESGGGLVPAGGSLRLSCAASGFIFGGYAMGWYRQAPGKERELVADITTSGDSTYYADSVKGRFTISRDNAKNTVYLQMNSLKPEDTAVYYCNAKRSFRWTYGYWGQGTQVTVSS
Ans: high polyreactivity

Q: Proceed to QVQLVESGGGLVQAGGSLRLSCAASGYIFWSYAMGWYRQAPGKERELVAGITASGGSTYYADSVKGRFTISRDNAKNTVYLQMNSLKPEDTAVYYCAAEAYTQYWIYYYWGQCTQVTVSS
Ans: high polyreactivity

New cases:
Q: Bench note: what polyreactivity (PSR sort gate) did QVQLVESGGGLVQAGGSLRLSCAASGSIFAANAMGWYRQAPGKERELVADITKSGGSTYYADSVKGRFTISRDNAKNTVYLQMNSLKPEDTAVYYCNADDTQLESFAPGHGYDYWGQGTQVTVSS show?
Ans: low polyreactivity

Q: Proceed to QVQLVESGGGLVQAGGSLRLSCAASGLIFSYNAMGWYRQAPGKERELVATISYSGGTTYYADSVKGRFTISRDNAKNTVYLQMNSLKPEDTAVYYCAARTLYSPGRPWKWYNYGRYGYWGQGTQVTVSS
Ans: high polyreactivity

Q: Proceed to QVQIVESGGGSVQAGGSLRLSCADSGFTFRKNAMGWYRQAPGKERELVAAISVSGGRTYYADSVKVRFTISRDNAKNTFYLQMNSLKPEETAVYYCAARRYVLVHKYDYWGQGTQVTVSS
Ans: high polyreactivity

Q: Proceed to QVQLVESGGGLVQAGGSLRLICAASGRIFVPYAMGWYRQAPGKERELVAAITYDGGSTYYADSVKGRFTISRDNAKNTVYLQMNSLKPEDTAVYYCAADYGYSQYILGQFRLEELDYWGQGTQVTVSS
Ans: low polyreactivity

Q: Proceed to QVQLVESGGGLVQAGGSLRLSCAASGYTYPYYTMGWYRQAPGKERELVAAISSGGRTKYADSVKGRFTISRDNAKNTVYLQMNSLKPEDTAVYYCAKSGNYRTGRFDYWGQGTQVTVSS
Ans: high polyreactivity

Q: Proceed to QVQLVESGGGLVQAGGSLRLSCAASGSTFYPNSMVWYRQAPGKERELVAAISRGTRTKYADSVKGRFTISRDNAKNSVYLQKNSLKPEDTAVYYCAADTGTGLDWGQGTQVTVSS
Ans: high polyreactivity
